# Assay remarks: in vivo
# Condition info: male, Sprague Dawley, rat, sc, 15.9 μmole/kg, Concentration, subcutaneous 15.9 μmole/kg, time 0.03 h, individual animals
Assay metric: concentration at 0.03 h (nM)

# Molecule, Assay metric, Measured result
rows = [
    ("COc1ccc2c3c1O[C@H]1[C@@H](OCc4cn(CCNCCCCCCOc5cc(OCCCc6c(C)n[nH]c6C)cc(C(=O)O)c5)nn4)CC[C@@]4(O)[C@@H](C2)N(C)CC[C@]314", "concentration at 0.03 h", 1340),
]

----------
# Target under test: human mu-opioid receptors (Homo sapiens)
# Sequence (P35372 whole entry): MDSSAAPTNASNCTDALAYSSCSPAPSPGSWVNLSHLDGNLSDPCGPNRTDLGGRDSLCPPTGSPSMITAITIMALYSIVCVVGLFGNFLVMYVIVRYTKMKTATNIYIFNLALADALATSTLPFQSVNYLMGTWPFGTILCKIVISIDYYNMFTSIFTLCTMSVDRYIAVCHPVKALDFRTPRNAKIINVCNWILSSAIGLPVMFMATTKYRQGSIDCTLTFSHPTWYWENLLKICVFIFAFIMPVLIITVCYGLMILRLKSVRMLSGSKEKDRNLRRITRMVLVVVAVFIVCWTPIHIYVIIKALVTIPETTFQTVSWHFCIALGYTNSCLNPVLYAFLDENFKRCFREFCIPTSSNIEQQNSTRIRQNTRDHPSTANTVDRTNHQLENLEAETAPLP

# Molecule, IC50
data = [
    ("C=CCN1CC[C@]23c4c5ccc(O)c4O[C@H]2[C@@H](OCc2cn(CCNCCCCCCOc4cc(OCCCc6c(C)n[nH]c6C)cc(C(=O)O)c4)nn2)CC[C@@]3(O)[C@H]1C5", "7.5 nM"),
]
